- assayed system: human FLAP (Homo sapiens (Human), UniProt P20292)
- Sequence (P20292 whole entry): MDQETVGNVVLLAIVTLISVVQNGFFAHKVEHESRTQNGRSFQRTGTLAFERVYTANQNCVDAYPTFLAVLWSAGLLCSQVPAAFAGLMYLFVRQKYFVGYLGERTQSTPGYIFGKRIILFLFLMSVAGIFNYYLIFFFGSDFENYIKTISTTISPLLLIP
- test: FLAP binding assay (HTRF format)
- conditions: human FLAP wild type, Table 6 (additional runs)
measurement name: pKi
The value called pKi is obtained by taking minus log10 of the concentration in mol/L.

The examples below pair each entry with its known result.
Nc1ncc(-c2ncc(-c3ccccc3S(=O)(=O)NCCO)cc2F)cn1 [Example 882]	6.78
Nc1cnc(-c2ccc(-c3ccc(C(F)(F)F)nc3S(=O)(=O)C3CCS(=O)(=O)CC3)cc2F)cn1 [Example 912]	9.30
CC(C)(C)NS(=O)(=O)c1ccccc1-c1ccc(-c2cc(N)c3[nH]ccc3c2)c(F)c1 [Example 458]	8.38

We now examine a further compound.
Form: Entry = CC(C)(C)NS(=O)(=O)c1ccccc1-c1ccc(-c2cnc3cc[nH]c3c2)c(F)c1 [Example 425] | System = human FLAP (Homo sapiens (Human), UniProt P20292) | pKi = ____ 8.64
